assay-endpoint: intrinsic clearance, human liver microsomes (mL/min/kg)

compound	relational-operator	reported-result
CCCc1cnc(C)nc1N(C)CCC(C)(C)O	=	8.14
Cc1cc(Cl)n(-c2ccc(C#N)cc2)n1	=	105
Cc1nccc(-c2cccc(NCC(=O)NCc3ccccc3)c2)n1	=	62.8
CC(C)Oc1cccc(C(C)NC(=O)c2ccnc(-n3cncn3)c2)c1 (centres undefined)	=	70.8
Cc1cc(C)c2c(N)c(C(=O)NCc3ccc(Cl)cc3)sc2n1	=	162
CC(=O)Nc1ccc(S(=O)(=O)NC2=NCN(Cc3ccccc3)CN2)cc1	≤	4.74
C=CC(=O)N1CCC(CNc2ncnc(N)c2-c2ccc(Oc3ccccc3)cc2)CC1	=	191
C[C@@H]1CN(C(=O)CC(c2ccccc2)c2ccccc2)C[C@H](C)O1	=	36.4
O=C(COc1ccc2oc3c(c2c1)CCCC3)N1CCOCC1	=	31
O=C1CCCC[C@@H]2[C@H](C[C@@H](Cc3ccccc3F)N2C(=O)c2cccc3ncccc23)N1	=	63.7
COCCNc1cc(NC(=O)N2CCCc3cc(CN4CCN(C)CC4=O)c(C=O)nc32)ncc1C#N	=	14.4
CCOCCNC(=O)c1cccc(-c2cc(F)ccc2OC)c1	=	130
c1ccc(-c2n[nH]c(C3CCN(c4cnc5ccccc5n4)CC3)n2)cc1	=	10.7
O[C@@H]1CO[C@H]2C[C@@H]1Nc1c(-c3ccccc3)cccc12	=	15
CCc1ccccc1NC(=O)CCn1ccnc1-c1ccc2c(c1)OCO2	=	126
OCC1CCCCN1Cc1ccc(Cl)c(Cl)c1 (centres undefined)	≤	4.74
N#Cc1ccccc1CN1C(=O)CCC1=O	≤	4.74
CCOc1ccc(Nc2ncccc2C#N)cc1	=	99.6
CCc1ccc(-c2nccn2CC(=O)Nc2ccc(C)cc2F)nc1	=	32.6
O=C(Nn1cnc2ccccc21)c1cc(Cl)ccc1F	≤	4.74
COc1ccc2c(c1)CN(c1nc(C)cc(C)n1)CC2	=	129
COc1cc(Br)c2c(=O)[nH]c(C)nc2c1	=	13.9
COc1ccc(C)cc1S(=O)(=O)NCCC(=O)Nc1ccccc1C	=	92
COc1ccc(-c2nc(NC(C)C)ncc2-c2ncc[nH]2)cc1	=	26.8

* * *

Entries and their intrinsic clearance, rat liver microsomes values follow.
assay-endpoint: intrinsic clearance, rat liver microsomes

compound	reported-result
Cc1ccn(-c2ccc3[nH]c4c(c3c2)CCCC4=O)n1	30.7 L/h/kg
Cc1cnc(-c2nc(NCc3cccnc3)ncc2-c2cc(C)no2)cn1	15.7 L/h/kg
Cc1cc(C(=O)O)nn1-c1ccccn1	≤ 0.64 L/h/kg
O=c1c2c(C(F)(F)F)cccc2ncn1CCc1ncc[nH]1	15.4 L/h/kg
O=C(NCCc1ccc2c(c1)OCO2)C1CCCC1	36 L/h/kg
CC(C)N(CCCNC(=O)Nc1ccc(C(C)(C)C)cc1)C[C@@H]1O[C@@H](n2ccc3c(N)ncnc32)[C@H](O)[C@H]1O	116 L/h/kg
CSCc1csc(NC(C)=O)n1	14.9 L/h/kg
C[C@@H]1CN(Cc2ccccc2)C[C@H]1c1nc2c(cnn2C2CCOCC2)c(=O)[nH]1	19.3 L/h/kg
CC(C)(C)c1csc(NC(=O)C2CC2)n1	5.34 L/h/kg
CCC(=O)N1CCCC(C(=O)N2CCc3c(Cl)cc(Cl)cc3C2C)C1 (stereo unspecified)	90.6 L/h/kg
COC(=O)N1CC(NCc2c(C)nn(C(C)(C)C)c2C)C1	3.67 L/h/kg

* * *

Entries and their log10 intrinsic clearance, rat liver microsomes values follow.
assay-endpoint: log10 intrinsic clearance, rat liver microsomes (log10 of the value in mL/min/kg)

chemical-structure	reported-result
Cc1cccc(NC(=O)N2CCC(N3CC=CC3)CC2)c1Cl	3.02
O=C(c1ccc(Cl)cc1)N1CCC[C@@H](C(=O)N2CCc3ccccc3C2)C1	3.40
CC(=O)N1CCN(CCNC(=O)N2CCc3sccc3C2)CC1	1.87
Cn1ncnc1COc1nn2c(-c3c(F)cccc3F)nnc2cc1C1CCC1	1.61
O=C(Cn1nc2n(c1=O)-c1ccccc1C1=NCCN12)N1CCCc2ccccc21	3.22
CCC1(O)CN(c2ncccc2C#N)C1	1.40
c1nn(C2CCOCC2)cc1Nc1ncc2nnn(-c3ccc4cn[nH]c4c3)c2n1	2.88
COCCN(C)c1ccc(CN2CCOC3(CCCC3)C2)cn1	2.80
COc1c(C)cnc(Cn2cc(C#CCC(C)(C)O)c3c(Cl)nc(N)nc32)c1C	2.16
CC#CCNc1ccc(-n2cnnn2)c(C)c1	2.12

* * *

Entries and their intrinsic clearance, rat liver microsomes values follow.
assay-endpoint: intrinsic clearance, rat liver microsomes (mL/min/kg)

compound	relational-operator	reported-result
Cc1ccc(C)c(S(=O)(=O)N2CCCN(CCn3cccn3)CC2)c1	=	2010
COc1ccc(C)cc1NC(=O)CN1CCc2ccccc2C1	=	2320
c1csc(Cc2nc(-c3cnccn3)no2)c1	=	80.8
Fc1ccccc1-c1c[nH]nc1C1CCCN1Cc1ccc2ncccc2c1 (configuration not stated)	=	1630
Cc1cccc(OC[C@@]2(O)CN(C[C@]3(O)CC[C@@H](C(C)(C)C)CC3)CC[C@@H]2O)c1	=	1790
Cc1ccc2nc(C)c(C(=O)N3CCC(C(=O)Nc4ccncc4)CC3)cc2c1	=	70
COc1nc2sc(C(=O)NC3CC3)c(N)c2c(C)c1Cl	=	133
NCCOc1cccc(CC(=O)N2CCC(F)(F)CC2)c1	≤	10.7
O=C(NCCc1cccc2cccnc12)C1CCCCC1	=	906
CC(C)(O)Cn1nc(-c2ccccc2)c2c(Cl)c(-c3ccccc3)nnc21	=	85.5
O=c1c2cccc(C(F)(F)F)c2ncn1C1CCCC1	=	317
O=c1c2oc3ccccc3c2ncn1Cc1ccc(F)c(F)c1	=	788
CN(CC(=O)N(C)C)Cc1cc(C#N)ccc1F	=	38.1
CC1(C)CN(C(=O)C2(C(=O)N3CC(C)(C)C3(C)C)CCC2)C1(C)C	=	1210
Cc1nnc(NCCc2ccc3c(c2)OCO3)c(C#N)c1C	=	935
O=C1OCCN1CCN1CCC(c2cc3ccccc3[nH]2)CC1	=	488
CCn1c(C(=O)N(C2CC2)C2CC2)cc2c3c(ncn3C)c(Nc3cc(C)n(C)n3)nc21	=	20.1
CC(C)CN(Cc1cnn(C)c1)C(=O)c1cccc(-c2cnccn2)c1	=	4750
CC(=O)NC1(C(=O)N2CCCN(C3CC3)CC2)CCC(C)CC1 (configuration not stated)	=	80.8
N#Cc1cccc(CN2CCC=C(CNC(=O)c3cccs3)C2)c1	=	442
Cc1nc(-c2ccccc2)ccc1C(=O)NC1CCCC1	=	319
CC1(C)OCCn2c1nc1c(N3CCOCC3)nc(-c3cnc(N)nc3)nc12	=	26
CCOc1cccc(C(=O)Nc2ccc3c(c2)CCC(=O)N3C)c1	=	53.6
O=C(O)c1cc(/N=N/c2ccc(S(=O)(=O)Nc3ccccn3)cc2)ccc1O	=	50.5
NC(=O)c1csc(CN2CCc3cc(F)ccc3C2)c1	=	252
Cc1ccc([C@@H]2N[C@@H](Cc3ccccc3)C(=O)N2C)o1	=	151
COc1cc(CN2C[C@H]3CCc4c(nc(C)[nH]c4=O)[C@H]3C2)cc(OC)c1OC	≤	10.7
CN(C)S(=O)(=O)CCCN1CCc2ccccc2CC1	=	716
Cc1cc2cc(C(=O)N(Cc3ccc4c(c3)OCO4)C3CC3)ccc2o1	=	1730
c1nc(NC2CCN(C3CC3)CC2)c2sccc2n1	=	80.6
NCc1cccnc1OCc1ccccc1	=	747
CCC1=C(C)CN(C(=O)NCCc2ccc(S(=O)(=O)NC(=O)N[C@H]3CC[C@H](C)CC3)cc2)C1=O	=	305
COc1ccc(NC(=O)CN2CCC(c3cc(-c4cnc(N)nc4)cc(C)n3)CC2)cc1	=	245
CCC(C)(C)N1CCN(C(=O)Nc2cnn(CC(C)C)c2C(F)F)CC1	=	159
CN(C)c1ccc(-c2ccc(C(=O)NCCN3CCCC3=O)cc2)nn1	=	75
CSc1ccc(C(=O)Nc2cccc(C(=O)NCC(C)C)c2)cc1	=	2660
Cc1noc(CCNc2cccc(F)c2C#N)n1	=	266
O=C(NCC1CC1)c1ccc(-n2ccnc2)nc1	=	23.2
Oc1cc(F)ccc1-c1nc(-c2ccncc2)no1	=	334
C[C@@H](CO)Nc1nc(C(F)(F)F)nc2[nH]cnc12	≤	10.7
CCc1nnnn1Cc1noc2c1CCCC2	=	60.7
COc1ncc(C(=O)NCc2cnn3cccnc23)cn1	≤	10.7
COc1ccc(NC(C)=O)cc1NC(=O)CN(Cc1ccccc1)C(C)C	=	4200
CCOC(=O)c1cccnc1-c1ccc2[nH]ccc2c1	=	695
O=C(NO)c1cnc(NC2(c3cccc(F)c3)CCCCC2)nc1	=	306
CC(C)(C)C(=O)N1CCN(C(=O)CCN2CCOC2=O)CC1	≤	10.7
CN(CC(N)=O)Cc1cc2c(cc1Br)OCO2	=	324

* * *

Classification scheme (MDR1-MDCK efflux ratio): 1 (below 0.8), 2 (0.8 to below 6), 3 (6 or more)

chemical-structure	label-value
CCN1CCN(Cc2ccc(Nc3ncc(F)c(-c4cc(F)c5nc(C)n(C(C)C)c5c4)n3)nc2)CC1.CS(=O)(=O)O	3
CC(C)N(CCCNC(=O)Nc1ccc(C(C)(C)C)cc1)C[C@@H]1O[C@@H](n2cc(Br)c3c(N)ncnc32)[C@H](O)[C@H]1O	3
CC(C)c1cnn2c(NCc3ccccc3)cc(NCCCCCCN)nc12	3
CC(C)(C(=O)NCc1ccccn1)c1ccccc1	1
Cn1ccnc1-c1noc(NCc2ccccc2)n1	2
Cc1ccsc1CN(C)C(=O)[C@@H]1CCCN1C(=O)NC(C)C	3
Cc1ccc(NC(=O)CN(C)C2CCCCC2)cc1S(=O)(=O)N(C)C	2
CC(C)(C)c1ccc(C2=NC3(CCNCC3)NC2=O)cc1	3
CNC(=O)c1cccc(Cn2nnc(-c3ccccc3Cl)n2)c1	3
Cc1ccc(-c2nc(C(=O)N3CCc4ccccc4C3)cs2)o1	1
CCN(CC#N)C(=O)c1nn(-c2ccc(F)cc2)c2c1CCCC2	1
C1CCC(OCc2noc(C3CC3)n2)CC1	2
COc1ccc(/C=C/C(=O)c2c(C)nc3ccccc3c2N)cc1	1
CCCN1CCn2nc(-c3nc4cc(OC)ccc4[nH]3)cc2C1	2
CC(=O)N1CCCN(Cc2c(C)nn(C)c2Cl)CC1	2
c1ccc2c(c1)CCN(Cc1nnc3n1CCC3)C2	3
Cc1cc(=O)n(C)c2cc(N3C(=O)CC[C@H](NS(=O)(=O)CC(C)C)[C@H]3c3ccc(Cl)cc3)ccc12	2
O=c1oc2cccnc2n1Cc1ccccn1	2
Cc1cc(NC(=O)CN(C)CCOc2ccccc2)on1	1
O=C(CSCCc1ccccn1)Nc1ccccc1	1
CSc1cccc(-c2ccccc2-c2nnc(C)o2)c1	1
Fc1ccc(F)c(-c2nc(C3CCOCC3)nn2-c2cccnc2)c1	2
O=c1c2ccccc2nc2n1CCN(Cc1ccc(F)cc1)CC2	1
Cc1ncc(C)n2nc([C@@H]3C[C@H]3c3nc4c5cccnc5ccn4c3C)nc12	2
CCCCOc1nc(N)c2c(n1)N(Cc1cccc(CN3CCCC3)c1)CC(=O)N2	2
O=C(CSC1CCCC1)NCCn1nc2c(cc1=O)CCCC2	3
CC(=O)Nc1ccc(CNCCOc2ccc(F)cc2F)cc1	2
O=C(Cc1cccnc1)Nc1ncccc1Cl	1
Cc1n[nH]c(C)c1CCC(=O)N1CCOCC1	3
CN(C)c1nc(N)nc(Sc2ccccc2)n1	1
O=C(c1ccccc1)N1CCN2C(=O)N(Cc3ccccc3)C(=O)[C@H]2C1	2
CCOc1ccc(CNC(=O)Cn2ccc3cc(S(=O)(=O)N4CCCC4)ccc32)cc1	3
Cc1ccc(Cn2nc(C)c(C(N)=O)c2Cl)cc1	1
CCCCOc1ccc(C(=O)NCc2cc(C)on2)cc1	1
c1cnc(-n2cccn2)c(CNC2CCCC2)c1	2
CCCS(=O)(=O)Nc1ccc(F)c(C(=O)c2c[nH]c3ncc(-c4ccc(Cl)cc4)cc23)c1F	2
Cc1cnc(NCc2ccccc2-n2ccnc2)nc1N(C)C	3
CN(CCNC(=O)NC1CCOCC1)C1CCCC1	3
CN1CCC(=C2c3ccccc3CCc3sccc32)CC1	2
COc1ccc(CC(=O)N2CCc3[nH]c4ccc(Cl)cc4c3C2)cc1OC	3
Clc1ccc2c(Oc3cccnc3)ncnc2c1	1
O=C(NCc1cccnc1)c1cnn(-c2ccccc2)c1	2
O=C(O)CNc1nc(-c2ccccc2)nc2ccccc12	1
[2H]C([2H])([2H])NC(=O)c1nnc(NC(=O)C2CC2)cc1Nc1cccc(-c2ncn(C)n2)c1OC	3
O=C(Nc1ccc(Cl)cn1)C1(c2cccc(Cl)c2)CC1	1
Cc1nc(-c2cnn(C)c2-c2ccc(C(F)(F)F)cn2)c2c(N3CCC3)ncnn12	3
Cc1nc(O)c2c(n1)CN(Cc1ccccc1)CC2	3
